target: Nav1.7 (or SCN9A) channel (Homo sapiens, UniProt Q15858); assay: Nav1.7 (hSCN9A) whole-cell electrophysiology, PatchXpress platform; conditions: HEK cells stably expressing hSCN9A, held at V1/2 of inactivation, calculated from single point % inhibition, read-out: Nav1.7 EIC50 (estimated IC-50)
Sequence (Q15858 whole entry): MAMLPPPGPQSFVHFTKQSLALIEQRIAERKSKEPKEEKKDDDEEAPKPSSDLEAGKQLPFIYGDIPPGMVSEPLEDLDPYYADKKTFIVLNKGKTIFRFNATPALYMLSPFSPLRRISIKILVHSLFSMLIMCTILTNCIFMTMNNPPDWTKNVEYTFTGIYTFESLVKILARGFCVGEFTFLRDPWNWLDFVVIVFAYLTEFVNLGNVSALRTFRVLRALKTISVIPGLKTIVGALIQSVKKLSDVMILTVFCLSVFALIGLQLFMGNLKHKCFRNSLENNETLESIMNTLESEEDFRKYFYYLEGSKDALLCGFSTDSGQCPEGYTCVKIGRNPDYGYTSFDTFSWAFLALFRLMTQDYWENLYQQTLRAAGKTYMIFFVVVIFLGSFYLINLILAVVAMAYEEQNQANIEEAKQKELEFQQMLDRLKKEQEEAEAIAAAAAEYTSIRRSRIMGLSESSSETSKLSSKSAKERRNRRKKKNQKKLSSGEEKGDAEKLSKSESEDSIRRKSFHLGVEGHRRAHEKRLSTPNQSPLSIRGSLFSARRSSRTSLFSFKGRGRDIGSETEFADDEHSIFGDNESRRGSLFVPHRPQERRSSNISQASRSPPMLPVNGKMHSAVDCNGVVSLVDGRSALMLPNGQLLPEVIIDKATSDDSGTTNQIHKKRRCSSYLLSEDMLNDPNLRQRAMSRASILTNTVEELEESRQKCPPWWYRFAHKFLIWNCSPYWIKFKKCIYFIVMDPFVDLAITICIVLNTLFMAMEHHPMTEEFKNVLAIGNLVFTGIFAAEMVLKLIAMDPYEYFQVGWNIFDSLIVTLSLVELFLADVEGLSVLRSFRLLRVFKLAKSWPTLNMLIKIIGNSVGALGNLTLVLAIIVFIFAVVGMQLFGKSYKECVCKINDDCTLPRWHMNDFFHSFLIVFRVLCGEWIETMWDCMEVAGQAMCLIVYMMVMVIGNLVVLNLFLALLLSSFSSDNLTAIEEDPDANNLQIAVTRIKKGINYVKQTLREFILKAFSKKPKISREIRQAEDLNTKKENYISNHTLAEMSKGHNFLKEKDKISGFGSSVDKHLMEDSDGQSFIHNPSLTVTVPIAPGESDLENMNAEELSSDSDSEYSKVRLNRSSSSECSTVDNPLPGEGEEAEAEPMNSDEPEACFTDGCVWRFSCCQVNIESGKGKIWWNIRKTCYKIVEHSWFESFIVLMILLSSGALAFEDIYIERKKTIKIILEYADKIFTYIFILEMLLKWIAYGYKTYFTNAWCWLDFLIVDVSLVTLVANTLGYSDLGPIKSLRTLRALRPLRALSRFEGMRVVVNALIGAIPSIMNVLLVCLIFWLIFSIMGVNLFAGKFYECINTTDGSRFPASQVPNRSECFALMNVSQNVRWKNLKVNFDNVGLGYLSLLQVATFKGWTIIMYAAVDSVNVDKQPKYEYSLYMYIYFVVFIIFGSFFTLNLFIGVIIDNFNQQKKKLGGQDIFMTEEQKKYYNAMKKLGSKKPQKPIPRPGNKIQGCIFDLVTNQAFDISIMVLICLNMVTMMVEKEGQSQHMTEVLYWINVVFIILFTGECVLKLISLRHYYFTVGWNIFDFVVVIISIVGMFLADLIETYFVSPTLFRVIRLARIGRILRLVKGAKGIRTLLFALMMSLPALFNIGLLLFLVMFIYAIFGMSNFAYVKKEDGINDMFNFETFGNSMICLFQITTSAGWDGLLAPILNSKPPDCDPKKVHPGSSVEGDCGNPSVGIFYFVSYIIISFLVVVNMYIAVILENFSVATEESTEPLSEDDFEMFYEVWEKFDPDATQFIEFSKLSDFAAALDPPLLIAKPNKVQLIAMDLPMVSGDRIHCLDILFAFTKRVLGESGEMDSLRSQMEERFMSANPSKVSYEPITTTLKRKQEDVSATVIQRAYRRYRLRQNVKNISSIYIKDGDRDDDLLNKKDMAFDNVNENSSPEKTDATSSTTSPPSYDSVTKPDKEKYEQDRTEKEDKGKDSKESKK
Where a name gives a salt, the structure may show the parent alone.
measured-metric: IC50
Could you kindly put the unit after your number?

// sample Nc1cc(-c2cc(Cl)ccc2Oc2cc(F)c(S(=O)(=O)Nc3cscn3)cc2Cl)ccn1 [Example 10, trifluoroacetate] , its IC50 was 10.8 nM

Measured IC50, Nc1cc(-c2cc(Cl)ccc2Oc2cc(F)c(S(=O)(=O)Nc3ncc(F)cn3)cc2Cl)ccn1 [Example 5, dihydrochloride] : 11.8 nM

Item: O=S(=O)(Nc1cscn1)c1cc(Cl)c(Oc2ccc(Cl)cc2-c2ccnc(N3CCNCC3)n2)cc1F [Example 1, trifluoroacetate] | IC50: 6.7 nM

Documented IC50 of O=S(=O)(Nc1nncs1)c1cc(Cl)c(Oc2ccc(C(F)(F)F)cc2-c2ccnn2C2CNC2)cc1F : 1.1 nM

GET /value?item= Nc1cc(-c2cc(F)ccc2Oc2cc(F)c(S(=O)(=O)Nc3cscn3)cc2Cl)ccn1 [Example 7, trifluoroacetate] &field=IC50 returns 14.7 nM

IC50 for O=S(=O)(Nc1nncs1)c1cc(Cl)c(Oc2ccc(Cl)cc2-c2ccnc(N3CCNCC3)n2)cc1F [Example 2, trifluoroacetate] is 5 nM

What the record says about Nc1n[nH]cc1-c1cc(OC(F)(F)F)ccc1Oc1cc(F)c(S(=O)(=O)Nc2cscn2)cc1Cl [Example 8, dihydrochloride] : IC50 is 9.9 nM

---

Target: Nav1.7 (or SCN9A) channel (Homo sapiens, UniProt Q15858)
Assay: Nav1.7 (hSCN9A) whole-cell electrophysiology, PatchXpress platform
Details: HEK cells stably expressing hSCN9A, held at V1/2 of inactivation, calculated from single point % inhibition, read-out: Nav1.7 EIC50 (estimated IC-50)
Experimental: The ability of the compounds of list (I) to block the Nav1.7 (or SCN9A) channel was measured using the assay described below. Human Embryonic Kidney (HEK) cells were transfected with an hSCN9A construct using lipofectamine reagent (Invitrogen), using standard techniques. […] hSCN9A currents in HEK cells were measured using the whole-cell configuration of the patch-clamp technique (Hamill et al., 1981). […]
Counter-ions that a name gives are not always drawn.
// returns Criterion not met unless IC50 is strictly below 20 nM, in which case Criterion met

Hello, is IC50 of the following compound strictly smaller than 20 nM? Nc1cc(-c2cc(Cl)ccc2Oc2ccc(S(=O)(=O)Nc3nncs3)cc2Cl)ccn1 [Example 9, trifluoroacetate]
Criterion not met

# strict comparison: is reported IC50 < 20 nM? input = Nc1[nH]ncc1-c1cc(F)ccc1Oc1cc(F)c(S(=O)(=O)Nc2cscn2)cc1Cl [Example 11, trifluoroacetate]
Criterion met

Decide: IC50 of O=S(=O)(Nc1cscn1)c1cc(Cl)c(Oc2cc(F)c(C(F)(F)F)cc2-c2ccnnc2)cc1F strictly below 20 nM?
Criterion met

For Cc1cc(S(=O)(=O)Nc2ncns2)ccc1Oc1ccc(C(F)(F)F)cc1-c1ccnnc1 , is the recorded IC50 below the cut-off of 20 nM?
Criterion met

Is it true that IC50 reported for Cc1nnccc1-c1cc(C(F)(F)F)ccc1Oc1ccc(S(=O)(=O)Nc2ncns2)cc1C#N is less than 20 nM?
Criterion met

Bench note: check whether O=S(=O)(Nc1cscn1)c1cc(Cl)c(Oc2cc(C(F)(F)F)c(F)cc2-c2ccnnc2)cc1F [Example 4, bis(trifluoroacetate)] shows IC50 below 20 nM
Criterion not met

IC50 strictly < 20 nM for this compound? CN1CC(n2nccc2-c2cc(C(F)(F)F)ccc2Oc2cc(F)c(S(=O)(=O)Nc3nncs3)cc2Cl)C1
Criterion met
